# Test protocol: Toxicity liver stage against HepG2, at 10uM
# Format: cell-based
# Design: test concentration 10 uM, cell line HepG2-A16-CD81EGFP
# Details: human, HepG2-A16-CD81EGFP cells; read-out: INHIBITION
Experimental readout: cytotoxicity at 10 µM (%)
The reply should contain only the number, in %.

Use these answered entries as a reference point.
{"Compound": "CC(C)(N)C(=O)N1CCC(c2nccnc2Oc2ccccc2F)CC1", "Result units": "%", "cytotoxicity at 10 µM": -13.9}
{"Compound": "Cc1noc(C)c1CN1CCC2(CC1)C(c1cnn(C)c1)CC(=O)N2C (stereo unspecified)", "Result units": "%", "cytotoxicity at 10 µM": -106}
{"Compound": "O=C(c1ccc[nH]1)N1CCC2(CCCN2Cc2cccnc2)CC1", "Result units": "%", "cytotoxicity at 10 µM": 6.89}
{"Compound": "O=C(COc1ccccc1Cl)N1CCCC(n2ccnc2)C1 (stereo unspecified)", "Result units": "%", "cytotoxicity at 10 µM": -21.9}
{"Compound": "CC(C)CSc1ccc(-n2cccn2)nn1", "Result units": "%", "cytotoxicity at 10 µM": -218}

Asked: Using the record for O=C(NC(CN1CCCC1)c1ccccc1)c1c(O)cc(F)cc1F (stereo unspecified) , report its cytotoxicity at 10 µM.
Given back: -2.3

* * *

# Test protocol: Toxicity liver stage against HepG2, at 10uM
# Type: cell-based
# Set-up: test concentration 10 uM, cell line HepG2-A16-CD81EGFP
# Details: human, HepG2-A16-CD81EGFP cells; read-out: INHIBITION
Experimental readout: cytotoxicity at 10 µM (%)
The reply should contain only the number, in %.

Use these answered entries as a reference point.
{"Molecule": "Cc1ncccc1CNC(CCO)C1CCCCC1 (stereo unspecified)", "cytotoxicity at 10 µM [%]": -41.8}
{"Molecule": "O=C(NCCNc1ccc(C(F)(F)F)cn1)c1ccc(Br)cc1F", "cytotoxicity at 10 µM [%]": 7.15}
{"Molecule": "COc1ccc(F)cc1C(=O)Nc1nnc(C)s1", "cytotoxicity at 10 µM [%]": 11.1}
{"Molecule": "CC(C)(C)n1ncc2c1NC(=O)CC2c1ccccc1 (stereo unspecified)", "cytotoxicity at 10 µM [%]": 19.2}

Asked: Using the record for `O=C(O)CCc1ccc(S(=O)(=O)Nc2cnn(CC3CC3)c2)cc1` , report its cytotoxicity at 10 µM.
Given back: -8.35

Asked: Using the record for CCc1nc(NC2CC(=O)N(CC3CCCCC3)C2)ncc1C (stereo unspecified) , report its cytotoxicity at 10 µM.
Given back: -4.55

* * *

Measured cytotoxicity at 10 µM of individual entries
# Test protocol: Toxicity liver stage against HepG2, at 10uM
# Format: cell-based
# Set-up: test concentration 10 uM, cell line HepG2-A16-CD81EGFP
# Details: human, HepG2-A16-CD81EGFP cells; read-out: INHIBITION
The reply should contain only the number, in %.

Use these answered entries as a reference point.
{"Molecule": "O=C(c1ccn(-c2cccc(Cl)c2)n1)N1CCN(CCO)CC1", "Result units": "%", "cytotoxicity at 10 µM": -17.1}
{"Molecule": "COc1ccc(CN2CCC3(CC2)CCN(c2ncccn2)CC3)cc1", "Result units": "%", "cytotoxicity at 10 µM": -1.08}
{"Molecule": "Cc1nn(C)c(N2CCOCC2)c1CNCc1ccc(CO)c(F)c1", "Result units": "%", "cytotoxicity at 10 µM": -14.5}

Asked: Using the record for O=C(O)C1CC2(CCN(c3nccc4ccccc34)CC2)CN1 (stereo unspecified) , report its cytotoxicity at 10 µM.
Given back: -2.65

Asked: Using the record for Cc1nc(-c2ccncc2)ncc1C(C)NC(=O)CN1CCCCC1 (stereo unspecified) , report its cytotoxicity at 10 µM.
Given back: 1.47

Asked: Using the record for Cc1noc(C)c1CNCC1(COc2cccnc2)C[C@@H](O)[C@@H](O)C1 (stereo partly specified) , report its cytotoxicity at 10 µM.
Given back: -2.36

* * *

# Test protocol: Toxicity liver stage against HepG2, at 10uM
# Format: cell-based
# Parameters: test concentration 10 uM, cell line HepG2-A16-CD81EGFP
# Details: human, HepG2-A16-CD81EGFP cells; read-out: INHIBITION
Experimental readout: cytotoxicity at 10 µM

Use these answered entries as a reference point.
{"Compound": "COc1ccc(CC(=O)N2CC[C@@]3(O)CCNC[C@H]3C2)c(OC)c1", "Observed result": "4.26%"}
{"Compound": "Cc1cc(C)c2cc(CNC(C)C)c3nn(C)c(=O)n3c2c1", "Observed result": "-5%"}
{"Compound": "COCC(=O)N1CCCC1c1nc(C)c2c(n1)N(CC(C)C)C(=O)CC2 (centres undefined)", "Observed result": "1.6%"}
{"Compound": "COc1c(Br)cc(Br)cc1CNC(C)Cn1cccn1 (centres undefined)", "Observed result": "3.64%"}
{"Compound": "CC(=O)NC(C)C(=O)N(Cc1ccc(C)c(C)c1)C1CC1 (centres undefined)", "Observed result": "8.77%"}
{"Compound": "COc1ccc(CNC(=O)N(Cc2ccc(F)cc2F)C2CC2)cn1", "Observed result": "-6.67%"}
{"Compound": "CN1CCC(CNC(=O)c2cccc(C(F)(F)F)c2)c2ccccc21 (centres undefined)", "Observed result": "17.4%"}
{"Compound": "N#Cc1ccc(C(=O)N2CCn3c(Cn4cccn4)cnc3C2)cc1", "Observed result": "3.09%"}

Asked: Using the record for `Cc1ccc(CN2CC[C@H]3[C@H]2CC(=O)N3c2ccsc2)o1` , report its cytotoxicity at 10 µM.
Given back: 1.12%

Asked: Using the record for CC(C)(C)c1nc(CN2CCCC(c3noc(C4CC4)n3)C2)no1 (centres undefined) , report its cytotoxicity at 10 µM.
Given back: -14.4%

Asked: Using the record for `Cc1nonc1OCCNC(=O)COc1ccc(F)cc1F` , report its cytotoxicity at 10 µM.
Given back: -1.17%

Asked: Using the record for `CN1CCC(Oc2ccc(NC(=O)c3ccccc3)cc2)CC1` , report its cytotoxicity at 10 µM.
Given back: -5.13%

Asked: Using the record for `Cc1ncsc1C(=O)NC1CCN(CCC(N)=O)CC1` , report its cytotoxicity at 10 µM.
Given back: -10.2%

Asked: Using the record for `CNC(=O)c1ccc2c(c1)C1(CCN(CCOC)CC1)C(=O)N2` , report its cytotoxicity at 10 µM.
Given back: -1.92%

Asked: Using the record for Cc1cc(C2CCCN2C(=O)c2cnn(C)c2)on1 (centres undefined) , report its cytotoxicity at 10 µM.
Given back: -1.85%

Asked: Using the record for COc1ccc2[nH]c(=O)c(CN(C)C(C)c3ccccn3)cc2c1 (centres undefined) , report its cytotoxicity at 10 µM.
Given back: 2.76%

Asked: Using the record for COc1ccc(OC)c(C(O)CNC(=O)Nc2ccc(F)cc2F)c1 (centres undefined) , report its cytotoxicity at 10 µM.
Given back: -2.74%

Asked: Using the record for `CN(C)CCNC(=O)c1sccc1N(C)S(=O)(=O)c1ccc(Cl)cc1` , report its cytotoxicity at 10 µM.
Given back: 2.38%

Asked: Using the record for COc1ccccc1C1Cn2c(C)cnc2CN1Cc1c[nH]nc1C (centres undefined) , report its cytotoxicity at 10 µM.
Given back: 2.79%

Asked: Using the record for `CCn1ccnc1CN1C[C@@H](CN2CCCC2)[C@@H](CO)C1` , report its cytotoxicity at 10 µM.
Given back: -9.96%

Asked: Using the record for `CCNc1cc2c(nn1)CCN(C(=O)c1cc3ccccc3o1)C2` , report its cytotoxicity at 10 µM.
Given back: 3.88%

Asked: Using the record for `Cc1nc(-c2noc3ccc(C(=O)NCCN4CCOCC4)cc23)cs1` , report its cytotoxicity at 10 µM.
Given back: 4.19%

Asked: Using the record for `Cc1ccc(N2CCC(c3nccn3Cc3cscn3)CC2)nn1` , report its cytotoxicity at 10 µM.
Given back: -12.8%

Asked: Using the record for `O=C(CSCCN1CCOCC1)N1CCc2ccccc2C1` , report its cytotoxicity at 10 µM.
Given back: -6.58%

* * *

# Test protocol: Toxicity liver stage against HepG2, at 10uM
# Assay type: cell-based
# Parameters: test concentration 10 uM, cell line HepG2-A16-CD81EGFP
# Details: human, HepG2-A16-CD81EGFP cells; read-out: INHIBITION
Measured cytotoxicity at 10 µM of individual entries
The reply should contain only the number, in %.

{"Molecule": "Cc1ccc(N2CCCC3(CCN(C(=O)c4sccc4C)C3)C2)nn1 (stereo unspecified)", "Result units": "%", "cytotoxicity at 10 µM": -107}

Asked: Using the record for `CC(=O)N[C@@H]1CN(C(=O)c2cnc3ccccc3c2)C[C@H]1O` , report its cytotoxicity at 10 µM.
Given back: -12.1

Asked: Using the record for `c1nc2c(c(N3CCOCC3)n1)CCNCC2` , report its cytotoxicity at 10 µM.
Given back: -2.36

Asked: Using the record for CCCC(C(=O)NC1CCN(S(C)(=O)=O)CC1)c1ccccc1 (stereo unspecified) , report its cytotoxicity at 10 µM.
Given back: -1.38

Asked: Using the record for `O=C(c1ccc[nH]1)N1CCn2cc(Cn3cccn3)nc2C1` , report its cytotoxicity at 10 µM.
Given back: -81.9

Asked: Using the record for `CCc1noc(CN2CCCN(C(C)=O)CC2)n1` , report its cytotoxicity at 10 µM.
Given back: -1.25
